system: L1210 leukemia ip in BDF1 mice, survival T/C; assay: NCI In Vivo Anticancer Drug Screen. Data for tumor model L1210 Leukemia (intraperitoneal) in B6D2F1 (BDF1) mice; conditions: endpoint: mean survival time; dose: 100.0 mg/kg/injection; schedule: Q01DX001 (ip); vehicle: Klucel (hydroxypropylcellulose) (HPC); higher = longer survival
Inconclusive results and toxic doses are left out.
Attribute measured: T/C

Could you share which T/C value was measured for CCOC(=O)n1ccc2nc3ccccc3cc21 ?
100 % of control

Ok, now CCOC(=O)C(=Cc1ccccc1OC)C(=O)OCC
100 % of control

Ok, now O=[N+]([O-])c1ccc(C(=NO)c2ccc([N+](=O)[O-])cc2)cc1
103 % of control

Ok, now Cc1ccc(N2C(=O)CNC2=O)cc1
101 % of control

Ok, now O=C(Nc1ccc(Nc2ccccc2)cc1)Nc1cccc2ccccc12
97 % of control

Ok, now NNC(=O)c1ccc(Cl)cc1Nc1ccc(Cl)cc1
97 % of control

Ok, now Nc1nc2ncc(CNc3ccc(C(=O)NC(CCC(=O)O)C(=O)O)cc3)nc2c(=O)n1N (stereo not drawn)
98 % of control

Ok, now COc1ccc2c(c1)CCC1=C2CCC(C(=O)O)C1(C)C(=O)O (stereo not drawn)
97 % of control

Ok, now CN(C=O)c1cccc(C(=O)O)c1
96 % of control

Ok, now O=C(c1ccccc1)N1CC1(c1ccccc1)C1(c2ccccc2)SCCCS1 (stereo not drawn)
95 % of control

Ok, now CCOC(=O)Cc1ccc(N)cc1
104 % of control

Ok, now O=C(O)c1ccc(CC2CCCC2)cc1
96 % of control

Ok, now CC(=O)c1ccc(Cl)c([N+](=O)[O-])c1
91 % of control

---

test system: L1210 leukemia ip in BDF1 mice, survival T/C; test: NCI In Vivo Anticancer Drug Screen. Data for tumor model L1210 Leukemia (intraperitoneal) in B6D2F1 (BDF1) mice; details: endpoint: mean survival time; dose: 200.0 mg/kg/injection; schedule: Q01DX009 (ip); vehicle: saline; higher = longer survival
Inconclusive results and toxic doses are left out.
Kindly state T/C for each of the entries shown.

Record CNC(=O)Nc1ncnn1Cc1ccccc1 : what is its T/C with L1210 leukemia ip in BDF1 mice, survival T/C?
97 % of control

Ok, now CC(NC(=O)Cc1ccccc1)C(=O)NN (centres undefined)
102 % of control

Ok, now CCNC(=O)CCP(=O)(CCC(=O)NCC)CCC(=O)NCC
90 % of control

Ok, now O=C(Oc1ccc([N+](=O)[O-])cc1)c1ccc(CBr)cc1
94 % of control

Ok, now CC1(C)N=C(N)N=C(N)N1c1cccc(CC(=O)Nc2ccccc2)c1
98 % of control

Ok, now CCOP(=O)(CCP(=O)(CCP(=O)(OCC)OCC)CCP(=O)(OCC)OCC)OCC
98 % of control

Ok, now CC1(C)C2C=CC1C(CO)(CO)C2 (centres undefined)
97 % of control

Ok, now CC(N)(Cc1ccc(O)c(O)c1)C(=O)O (centres undefined)
111 % of control

Ok, now CC1=CC(=O)C=C(C(C)C)/C1=C(\c1ccccc1C(=O)O)c1c(C)cc(OP(=O)(O)O)cc1C(C)C
102 % of control

Ok, now N=C(N=c1cc(C(=O)NC(=N)NC(=N)Nc2ccccc2)n(C(=N)NC(=N)Nc2ccccc2)c(C(=O)NC(=N)NC(=N)Nc2ccccc2)c1)NC(=N)Nc1ccccc1
94 % of control

Ok, now COc1ccc(CNCC(=O)O)cc1
100 % of control

Ok, now Nc1nc2c(ncn2C2OC(COP(=O)(O)O)C(O)C2O)c(=O)[nH]1 (centres undefined)
95 % of control

Ok, now CC(=O)CC(=O)NCc1ccncc1
105 % of control

Ok, now O=C(/C=C/c1cccnc1)NCC(O)CO (centres undefined)
97 % of control

Ok, now ONc1ncnc2nc[nH]c12
114 % of control

Ok, now C[N-]C.C[N-]C.[Cl][Pt+2][Cl]
88 % of control

Ok, now COc1ccc(C=NCCc2ccc(OC)c(OC)c2)cc1OC
98 % of control

Ok, now O=C1OC(=C(c2ccccc2)c2ccccc2)c2ccccc21
100 % of control

Ok, now O=C(O)CCC1CCC(=O)OC1=O (centres undefined)
100 % of control

Ok, now CCN(C)CCC(CNC(=O)CN(CC)CC)(c1cccc2ccccc12)C(C)C (centres undefined)
101 % of control

Ok, now O=C1/C(=C\c2cccc3ccccc23)COC/C1=C/c1cccc2ccccc12
97 % of control

Ok, now Cn1ncc(C(N)=O)c1N
103 % of control

Ok, now N#CN1CCOCC1
103 % of control

Ok, now O=C1NC(O)CCN1C1OC(CO)C(O)C1O (centres undefined)
110 % of control
